Below, each entry is listed with its recorded x-fold (EC50).
- Assay system: UniProtKB Q92847
- Sequence (Q92847 whole entry): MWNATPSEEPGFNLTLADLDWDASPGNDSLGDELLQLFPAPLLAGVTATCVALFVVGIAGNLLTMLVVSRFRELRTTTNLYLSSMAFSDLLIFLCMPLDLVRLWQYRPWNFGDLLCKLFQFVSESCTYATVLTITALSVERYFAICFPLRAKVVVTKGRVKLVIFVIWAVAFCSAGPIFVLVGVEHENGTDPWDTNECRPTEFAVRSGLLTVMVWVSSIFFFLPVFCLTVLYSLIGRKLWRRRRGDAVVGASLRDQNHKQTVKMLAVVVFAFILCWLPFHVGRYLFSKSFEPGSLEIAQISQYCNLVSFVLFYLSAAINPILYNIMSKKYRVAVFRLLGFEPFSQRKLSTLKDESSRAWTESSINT
- Assay details: Inositol trisphosphate turnover assay in COS-7 cells transfected with the ghrelin receptor
- Format: cell-based
- Design: expressed in transfected cells
- Condition notes: shift in potency compared to KwFwLL-NH2; inverse agonistic activity

>  <Molecule>
CC(C)C[C@H](NC(=O)[C@H](CC(C)C)NC(=O)[C@@H](Cc1c[nH]c2ccccc12)NC(=O)[C@H](Cc1ccccc1)NC(=O)[C@H](NC(=O)[C@@H](N)CCCCN)C(c1ccccc1)c1ccccc1)C(N)=O [Peptide 5, K-(D-Dip)-FwLL-NH2]

>  <x-fold (EC50) (x-fold)>
0.29

$$$$
>  <Molecule>
CC(C)C[C@H](NC(=O)[C@H](CC(C)C)NC(=O)[C@@H](Cc1c[nH]c2ccccc12)NC(=O)[C@H](Cc1ccccc1)NC(=O)[C@@H](Cc1ccccc1)NC(=O)[C@@H](N)CCCCN)C(N)=O [Peptide 9, K-(D-Phe)-FwLL-NH2]

>  <x-fold (EC50) (x-fold)>
5.28

$$$$
>  <Molecule>
CC(C)C[C@H](NC(=O)[C@H](CC(C)C)NC(=O)[C@@H](Cc1c[nH]c2ccccc12)NC(=O)[C@H](Cc1ccccc1)NC(=O)[C@@H](Cc1c[nH]c2ccccc12)NC(=O)[C@@H](N)CCCCN)C(N)=O [Peptide 2, KwFwLL-NH2, reference compound]

>  <x-fold (EC50) (x-fold)>
1

$$$$
>  <Molecule>
CC(C)C[C@H](NC(=O)[C@H](CC(C)C)NC(=O)[C@@H](Cc1c[nH]c2ccccc12)NC(=O)[C@H](Cc1ccccc1)NC(=O)[C@@H](Cc1ccc(-c2ccccc2)cc1)NC(=O)[C@@H](N)CCCCN)C(N)=O [Peptide 8, K-(D-Bip)-FwLL-NH2]

>  <x-fold (EC50) (x-fold)>
4.03

$$$$
>  <Molecule>
CC(C)C[C@H](NC(=O)[C@H](CC(C)C)NC(=O)[C@@H](Cc1c[nH]c2ccccc12)NC(=O)[C@H](Cc1ccccc1)NC(=O)[C@@H](Cc1ccc2ccccc2c1)NC(=O)[C@@H](N)CCCCN)C(N)=O [Peptide 6, K-(D-2-Nal)-FwLL-NH2]

>  <x-fold (EC50) (x-fold)>
3.54

$$$$
>  <Molecule>
CC(C)C[C@H](NC(=O)[C@H](CC(C)C)NC(=O)[C@@H](Cc1c[nH]c2ccccc12)NC(=O)[C@H](Cc1ccccc1)NC(=O)[C@@H](Cc1ccc(C(=O)c2ccccc2)cc1)NC(=O)[C@@H](N)CCCCN)C(N)=O [Peptide 7, K-(D-Bpa)-FwLL-NH2]

>  <x-fold (EC50) (x-fold)>
3.70

$$$$
